# Measured on: human OX2 receptor (Homo sapiens, UniProt O43614)
# Construct: expressed in transfected cells; host or cells: CHO cells
# Sequence (O43614 whole entry): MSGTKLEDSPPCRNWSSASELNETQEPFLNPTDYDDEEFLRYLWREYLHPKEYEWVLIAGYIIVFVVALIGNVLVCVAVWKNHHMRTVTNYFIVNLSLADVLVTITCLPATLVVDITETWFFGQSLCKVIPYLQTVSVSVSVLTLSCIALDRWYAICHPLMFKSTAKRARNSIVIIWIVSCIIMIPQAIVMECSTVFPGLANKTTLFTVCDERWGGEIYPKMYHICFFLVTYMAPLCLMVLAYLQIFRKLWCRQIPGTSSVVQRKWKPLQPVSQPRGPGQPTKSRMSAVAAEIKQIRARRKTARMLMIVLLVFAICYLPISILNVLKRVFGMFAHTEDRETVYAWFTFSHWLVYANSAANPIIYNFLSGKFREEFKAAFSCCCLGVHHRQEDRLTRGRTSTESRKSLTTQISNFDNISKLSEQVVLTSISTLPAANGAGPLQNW
# Experimental protocol: Measurement of orexin receptor antagonistic activity (calcium fluorescence, FLIPRtetra)
# Type: cell-based
# Applied conditions: CHO, 10 μM test compound; CHO cells expressing human OX2 receptor; OX-A 0.3 nM; read-out: Human Orexin2 receptor inhibition (at 10 μM)
Measure: inhibition at 10 µM (%)

The following molecules have reported results that may help.
{"Molecule": "COc1ccccc1C(=O)N1CCON(c2nc(C)cc(C)n2)CC1 [Example 51]", "Measured on": "human OX2 receptor (Homo sapiens, UniProt O43614)", "Unit spec": "%", "inhibition at 10 µM": 68}
{"Molecule": "Cc1cc(N2CCN(C(=O)c3cccc(F)c3-c3ncccn3)C[C@H](C)O2)nc(C)n1 [Example 220]", "Measured on": "human OX2 receptor (Homo sapiens, UniProt O43614)", "Unit spec": "%", "inhibition at 10 µM": 101}
{"Molecule": "Cc1cc(N2CCN(C(=O)c3ccc(F)cc3-c3ncccn3)C[C@H](C)O2)nc(C)n1 [Example 218]", "Measured on": "human OX2 receptor (Homo sapiens, UniProt O43614)", "Unit spec": "%", "inhibition at 10 µM": 101}

(P) Cc1ccc(-n2nccn2)c(C(=O)N2CCN(c3cc(C(F)(F)F)ccn3)OC[C@H]2C)c1 [Example 127]
(Q) Cc1cc(C)nc(N2CCN(C(=O)c3ccccc3)CCO2)n1 [Example 46]
IN: // which entry has the larger inhibition at 10 µM value, P or Q ? Please respond with the label that marks your chosen entry.
OUT: P

* * *

# Measured on: human OX1 receptor (Homo sapiens, UniProt O43613)
# Construct: expressed in transfected cells; host or cells: CHO cells
# Experimental protocol: Measurement of orexin receptor antagonistic activity (calcium fluorescence, FLIPRtetra)
# Assay type: cell-based
# Applied conditions: CHO, 10 μM test compound; CHO cells expressing human OX1 receptor; OX-A 1 nM; read-out: Human Orexin1 receptor inhibition (at 10 μM)
Measure: inhibition at 10 µM (%)

Worked cases, inhibition at 10 µM given:
{"Molecule": "Cc1cc(N2CCN(C(=O)c3ccccc3-c3noc(C)n3)C[C@H](C)O2)nc(C)n1", "inhibition at 10 µM (%)": 55}
{"Molecule": "CC[C@@H]1CON(c2cc(C)nc(C)n2)CCN1C(=O)c1ccccc1-c1nccs1", "inhibition at 10 µM (%)": 100}
{"Molecule": "C[C@@H]1CON(c2cc(C3CC3)ncn2)CCN1C(=O)c1ccccc1-n1nccn1", "inhibition at 10 µM (%)": 58}

(1) COc1ncnc(N2CCN(C(=O)c3ccccc3-n3nccn3)[C@H](C)CO2)n1
(2) Cc1cc(N2CCN(C(=O)c3cc(Cl)ccc3-n3nccn3)[C@H](C)CO2)nc(C)n1
(3) Cc1cc(C)nc(N2CCN(C(=O)c3ccccc3Cl)CCO2)n1
(4) Cc1ccc(-n2nccn2)c(C(=O)N2CCON(c3nc(C)cc(-c4ccc(F)cc4)n3)CC2)c1
IN: Would you mind ranking these molecules by ascending inhibition at 10 µM? In your reply, arrange the labels in the requested order.
OUT: 3, 1, 2, 4
(3: 9%, 1: 16%, 2: 66%, 4: 101%)

* * *

# Measured on: human OX1 receptor (Homo sapiens)
# Construct: expressed in transfected cells; host or cells: CHO cells
# Sequence (O43613 1-425): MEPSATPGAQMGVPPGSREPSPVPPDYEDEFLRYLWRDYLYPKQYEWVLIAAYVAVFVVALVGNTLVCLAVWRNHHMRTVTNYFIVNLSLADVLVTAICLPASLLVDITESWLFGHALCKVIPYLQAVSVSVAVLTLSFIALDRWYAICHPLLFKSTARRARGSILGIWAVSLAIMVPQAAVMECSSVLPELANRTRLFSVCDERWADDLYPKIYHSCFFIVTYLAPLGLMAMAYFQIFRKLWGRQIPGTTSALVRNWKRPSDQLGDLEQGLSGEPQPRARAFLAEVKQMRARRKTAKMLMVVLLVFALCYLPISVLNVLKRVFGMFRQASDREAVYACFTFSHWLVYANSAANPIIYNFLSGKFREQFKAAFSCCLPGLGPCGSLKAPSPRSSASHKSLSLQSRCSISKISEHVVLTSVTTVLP
# Experimental protocol: Measurement of orexin receptor antagonistic activity (calcium fluorescence, FLIPRtetra)
# Type: cell-based
# Applied conditions: CHO, 10 μM test compound; CHO cells expressing human OX1 receptor; OX-A 1 nM; read-out: Human Orexin1 receptor inhibition (at 10 μM)
Measure: inhibition at 10 µM (%)

{"Molecule": "COCC1CN(C(=O)c2ccccc2-n2nccn2)CCN(c2cc(C)nc(C)n2)O1 (centres unmarked) [Example 113]", "Measured on": "human OX1 receptor (Homo sapiens)", "Unit spec": "%", "Reported measurement": 16}

(1) Cc1nc(C(F)F)cc(N2CCN(C(=O)c3cc(F)ccc3-n3nccn3)C[C@H](C)O2)n1 [Example 100]
(2) Cc1cc(C)nc(N2CCN(C(=O)c3cccc(Cl)c3Cl)CCO2)n1 [Example 55]
(3) C[C@H]1CN(C(=O)c2cc(Cl)ccc2-n2nccn2)CCN(c2cc(C(F)F)nc(C3CC3)n2)O1 [Example 105]
(4) Cc1cc(N2CCN(C(=O)c3cc(C4CCC4)ccc3-n3nccn3)CCO2)nc(C)n1 [Example 41]
IN: Arrange these 4 molecules in increasing order of inhibition at 10 µM. Reply format: the labels, ordered as requested.
OUT: 4, 2, 1, 3
(4: 10%, 2: 18%, 1: 42%, 3: 96%)
